Cited source: patent US9273017B2

# EC50 annotations
target: human S1P5 receptor (Homo sapiens, UniProt Q9H228); construct: host or cells: CHO (AequoScreen recombinant cell line, co-expressing mitochondrially targeted apo-aequorin); experiment: In vitro functional activity (agonism), CHO-human-S1P5-Aequorin assay; type: cell-based; details: read-out: S1P5 pEC50 (converted)
Sequence (Q9H228 whole entry): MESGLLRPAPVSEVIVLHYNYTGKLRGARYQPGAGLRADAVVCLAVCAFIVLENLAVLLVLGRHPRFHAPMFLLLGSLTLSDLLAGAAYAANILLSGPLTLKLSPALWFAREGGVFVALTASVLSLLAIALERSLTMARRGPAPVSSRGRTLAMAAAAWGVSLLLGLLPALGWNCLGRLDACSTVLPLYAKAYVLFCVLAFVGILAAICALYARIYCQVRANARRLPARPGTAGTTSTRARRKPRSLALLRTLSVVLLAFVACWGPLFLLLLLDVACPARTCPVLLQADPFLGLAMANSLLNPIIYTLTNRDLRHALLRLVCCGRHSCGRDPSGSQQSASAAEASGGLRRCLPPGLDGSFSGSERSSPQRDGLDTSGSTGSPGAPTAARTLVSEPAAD
Counter-ions that a name gives are not always drawn.
quantity-kind: EC50 (µM)

[
  {
    "compound": "CCCc1ncc(OCCCOc2ccc(C3CN(CCC(=O)O)CCO3)cc2)s1 (stereo not drawn) [Compound 3, trifluoroacetic acid salt]",
    "quantity-kind": "EC50",
    "test-result": 10
  },
  {
    "compound": "Clc1cccc(Cl)c1COc1ccc(C2CN(CCc3nn[nH]n3)CCO2)cc1 (stereo not drawn) [Compound 228, hydrochloride]",
    "quantity-kind": "EC50",
    "test-result": 0.158
  },
  {
    "compound": "Cc1cc(OCc2cccc(Oc3ccccc3)c2)ccc1C1CN(CCC(=O)O)CCO1 (stereo not drawn) [Compound 92]",
    "quantity-kind": "EC50",
    "test-result": 5.01
  }
]

---

[
  {
    "molecule": "CC(C)c1cc(Cl)c(COc2ccc(C3CN(CCC(=O)O)CCO3)cc2)c(Cl)c1.Cl (centres unmarked)",
    "melting point": "108 to 110 °C"
  },
  {
    "molecule": "CC(C)c1cccc(Cl)c1COc1ccc(C2CN(CCC(=O)O)CCO2)c(C(F)(F)F)c1.Cl (centres unmarked)",
    "melting point": "206 to 210 °C"
  },
  {
    "molecule": "COc1cc(C2CN(CCC(=O)O)CCO2)ccc1OCc1ccccc1C(F)(F)F.Cl (centres unmarked) [Compound 66]",
    "melting point": "170 to 172 °C"
  },
  {
    "molecule": "COc1cc(C2CN(CCC(=O)O)CCO2)ccc1OCc1c(F)cccc1Cl.Cl (centres unmarked)",
    "melting point": "169 to 171 °C"
  },
  {
    "molecule": "Cl.O=C(O)CCN1CCOC(c2ccc(OCc3cccc(C(F)(F)F)c3)cc2C(F)(F)F)C1 (centres unmarked)",
    "melting point": "209 to 211 °C"
  },
  {
    "molecule": "Cl.O=C(O)CCN1CCOC(c2ccc(OCc3c(F)cccc3Cl)cc2C(F)(F)F)C1 (centres unmarked)",
    "melting point": "171.5 to 172.5 °C"
  },
  {
    "molecule": "COc1cc(C2CN(CCC(=O)O)CCO2)ccc1OCc1c(Cl)cccc1Cl.Cl (centres unmarked)",
    "melting point": "214 to 216 °C"
  },
  {
    "molecule": "Cl.O=C(O)CCN1CCOC(c2ccc(OCc3c(Cl)cccc3C3CC3)cc2C(F)(F)F)C1 (centres unmarked)",
    "melting point": "203 to 204 °C"
  },
  {
    "molecule": "Cl.O=C(O)CCN1CCOC(c2ccc(OCc3c(F)cccc3Cl)cc2F)C1 (centres unmarked)",
    "melting point": "189 to 190 °C"
  },
  {
    "molecule": "CCCCCCCCOc1cccc(C2CN(CCC(=O)O)CCO2)c1.Cl (centres unmarked) [Compound 231]",
    "melting point": "218 to 220 °C"
  },
  {
    "molecule": "CC#Cc1cc(Cl)c(COc2ccc(C3CN(CCC(=O)O)CCO3)cc2)c(Cl)c1.Cl (centres unmarked)",
    "melting point": "220 to 224 °C"
  },
  {
    "molecule": "Cl.O=C(O)CCN1CCOC(c2cccc(OCc3ccccc3Cl)c2)C1 (centres unmarked)",
    "melting point": "233 to 234 °C"
  },
  {
    "molecule": "CCCc1cc(Cl)c(COc2ccc(C3CN(CCC(=O)O)CCO3)cc2)c(Cl)c1.Cl (centres unmarked)",
    "melting point": "101 to 103 °C"
  },
  {
    "molecule": "Cl.O=C(O)CCN1CCOC(c2ccc(OCc3c(Cl)cccc3OC(F)(F)F)cc2C(F)(F)F)C1 (centres unmarked)",
    "melting point": "179 to 182 °C"
  }
]
